tested on: EKVX; test: relative viability (nuclei count vs DMSO), 5 days (fraction); higher = more cells survive; details: first compound 0.01581 µM
Please respond with Fulfilled when measured relative viability is strictly beneath 0.8, and with Not fulfilled in all other cases.

Here are 5 compounds together with their reported answers.
compound	class-name
Nc1ccn([C@@H]2O[C@H](CO)[C@@H](O)[C@@H]2O)c(=O)n1 [Cytarabine] + COc1cc2c(Oc3ccc(NC(=O)C4(C(=O)Nc5ccc(F)cc5)CC4)cc3F)ccnc2cc1OCCCN1CCOCC1 [Foretinib] (partner 0.25 µM)	Fulfilled
Nc1ccn([C@@H]2O[C@H](CO)[C@@H](O)[C@@H]2O)c(=O)n1 [Cytarabine] + C[C@]1(O)C[C@@H](c2nc(-c3ccc4ccc(-c5ccccc5)nc4c3)c3c(N)nccn32)C1 [Linsitinib] (partner 1 µM)	Not fulfilled
Nc1ccn([C@@H]2O[C@H](CO)[C@@H](O)[C@@H]2O)c(=O)n1 [Cytarabine] + Nc1nc2[nH]cc(CCc3ccc(C(=O)N[C@@H](CCC(=O)O)C(=O)O)cc3)c2c(=O)[nH]1 [Pemetrexed] (partner 0.2 µM)	Fulfilled
COc1cc2nccc(Oc3ccc(NC(=O)Nc4cc(C)on4)c(Cl)c3)c2cc1OC [Tivozanib] + C[C@@H](Oc1cc(-c2cnn(C3CCNCC3)c2)cnc1N)c1c(Cl)ccc(F)c1Cl [Crizotinib] (partner 1 µM)	Not fulfilled
COc1cc2nccc(Oc3ccc(NC(=O)Nc4cc(C)on4)c(Cl)c3)c2cc1OC [Tivozanib] + CC(C)C[C@H](NC(=O)[C@H](Cc1ccccc1)NC(=O)c1cnccn1)B(O)O [Bortezomib] (partner 0.002 µM)	Not fulfilled

Task: A record lists COc1cc2nccc(Oc3ccc(NC(=O)Nc4cc(C)on4)c(Cl)c3)c2cc1OC [Tivozanib] + Cc1nc(Nc2ncc(C(=O)Nc3c(C)cccc3Cl)s2)cc(N2CCN(CCO)CC2)n1 [Dasatinib] (partner 0.075 µM) . Is its relative viability below 0.8?
Result: Fulfilled

Task: A record lists COc1cc2nccc(Oc3ccc(NC(=O)Nc4cc(C)on4)c(Cl)c3)c2cc1OC [Tivozanib] + C[C@]1(O)C[C@@H](c2nc(-c3ccc4ccc(-c5ccccc5)nc4c3)c3c(N)nccn32)C1 [Linsitinib] (partner 1 µM) . Is its relative viability below 0.8?
Result: Not fulfilled

Task: A record lists Nc1ccn([C@@H]2O[C@H](CO)[C@@H](O)[C@@H]2O)c(=O)n1 [Cytarabine] + O=C(c1cc(Cc2n[nH]c(=O)c3ccccc23)ccc1F)N1CCN(C(=O)C2CC2)CC1 [Olaparib] (partner 8 µM) . Is its relative viability below 0.8?
Result: Fulfilled

Task: A record lists COc1cc2nccc(Oc3ccc(NC(=O)Nc4cc(C)on4)c(Cl)c3)c2cc1OC [Tivozanib] + CCNC(=O)c1noc(-c2cc(C(C)C)c(O)cc2O)c1-c1ccc(CN2CCOCC2)cc1 [Luminespib] (partner 0.01 µM) . Is its relative viability below 0.8?
Result: Not fulfilled

Task: A record lists COc1cc2nccc(Oc3ccc(NC(=O)Nc4cc(C)on4)c(Cl)c3)c2cc1OC [Tivozanib] + NC(=O)Nc1cc(-c2cccc(F)c2)sc1C(=O)N[C@H]1CCCNC1 [AZD7762] (partner 0.2 µM) . Is its relative viability below 0.8?
Result: Fulfilled

Task: A record lists Nc1ccn([C@@H]2O[C@H](CO)[C@@H](O)[C@@H]2O)c(=O)n1 [Cytarabine] + Nc1ncn([C@H]2C[C@H](O)[C@@H](CO)O2)c(=O)n1 [Decitabine] (partner 2 µM) . Is its relative viability below 0.8?
Result: Fulfilled

Task: A record lists Nc1ccn([C@@H]2O[C@H](CO)[C@@H](O)[C@@H]2O)c(=O)n1 [Cytarabine] + N=C(N)NC(=N)NCCc1ccccc1 [Phenformin] (partner 250 µM) . Is its relative viability below 0.8?
Result: Fulfilled

Task: A record lists COc1cc2nccc(Oc3ccc(NC(=O)Nc4cc(C)on4)c(Cl)c3)c2cc1OC [Tivozanib] + CS(=O)(=O)CCNCc1ccc(-c2ccc3ncnc(Nc4ccc(OCc5cccc(F)c5)c(Cl)c4)c3c2)o1 [Lapatinib] (partner 2 µM) . Is its relative viability below 0.8?
Result: Fulfilled

Task: A record lists Nc1ccn([C@@H]2O[C@H](CO)[C@@H](O)[C@@H]2O)c(=O)n1 [Cytarabine] + CS(=O)(=O)N1CCN(Cc2cc3nc(-c4cccc5[nH]ncc45)nc(N4CCOCC4)c3s2)CC1 [Pictilisib] (partner 1 µM) . Is its relative viability below 0.8?
Result: Fulfilled

Task: A record lists Nc1ccn([C@@H]2O[C@H](CO)[C@@H](O)[C@@H]2O)c(=O)n1 [Cytarabine] + CC1(C)CCC(c2ccc(Cl)cc2)=C(CN2CCN(c3ccc(C(=O)NS(=O)(=O)c4ccc(N[C@H](CCN5CCOCC5)CSc5ccccc5)c(S(=O)(=O)C(F)(F)F)c4)cc3)CC2)C1 [Navitoclax] (partner 0.5 µM) . Is its relative viability below 0.8?
Result: Not fulfilled
